assay: RSV human challenge study: plasma pharmacokinetics; assay type: in vivo; details: human, plasma, oral, 200 mg and 350 mg; postdose; read-out: Median time to maximum plasma concentration
Metric: Tmax

// Tmax lookup, key: NCc1ccc2c(c1)nc(CN1C(=O)C3(CC3)c3ccc(F)cc31)n2CCCC(F)(F)F
5 to 6 h

* * *

assay: RSV human challenge study: plasma pharmacokinetics; assay type: in vivo; details: human, plasma, oral, 350 mg; dose 10; read-out: Median Tmax
Metric: Tmax (h)
Return type: number; implicit unit h.

// Tmax lookup, key: NCc1ccc2c(c1)nc(CN1C(=O)C3(CC3)c3ccc(F)cc31)n2CCCC(F)(F)F [RV521]
5.05

* * *

experiment: RSV human challenge study: plasma pharmacokinetics; type: in vivo; details: human, plasma, oral, 200 mg; dose 10 (twice daily); plasma; read-out: Mean Cmax (SD)
Metric: Cmax (ng/mL)
Return type: number; implicit unit ng/mL.

// Cmax lookup, key: NCc1ccc2c(c1)nc(CN1C(=O)C3(CC3)c3ccc(F)cc31)n2CCCC(F)(F)F
94.9

* * *

experiment: RSV human challenge study: plasma pharmacokinetics; format: in vivo; conditions: human, plasma, oral, 200 mg; dose 1; read-out: Geometric mean (CV) AUC0–12h
Metric: AUC(0-t)

// AUC(0-t) lookup, key: NCc1ccc2c(c1)nc(CN1C(=O)C3(CC3)c3ccc(F)cc31)n2CCCC(F)(F)F
255 ng·h/mL

* * *

assay: RSV human challenge study: plasma pharmacokinetics; assay type: in vivo; settings: human, plasma, oral, 200 mg; dose 10; read-out: Median Tmax
Metric: Tmax (h)
Return type: number; implicit unit h.

// Tmax lookup, key: NCc1ccc2c(c1)nc(CN1C(=O)C3(CC3)c3ccc(F)cc31)n2CCCC(F)(F)F [RV521]
5.06

* * *

test: RSV human challenge study: plasma pharmacokinetics; type: in vivo; settings: human, plasma, oral, 350 mg; dose 1; read-out: Geometric mean (CV) AUC0–12h
Metric: AUC(0-t) (ng·h/mL)
Return type: number; implicit unit ng·h/mL.

// AUC(0-t) lookup, key: NCc1ccc2c(c1)nc(CN1C(=O)C3(CC3)c3ccc(F)cc31)n2CCCC(F)(F)F [RV521]
953

* * *

Assay: RSV human challenge study: plasma pharmacokinetics
Format: in vivo
Settings: human, in vivo; 200 mg and 350 mg; read-out: Elimination half-life (converted)
Protocol: Twice-daily collection of nasal wash samples allowed measurement of viral load via RT-qPCR and quantitative culture. […] Subjects reported the occurrence and severity of symptoms three times daily using a 10-item subject symptom diary card as previously reported ([12]) (see Supplemental Methods). Throughout the quarantine period, used tissues were collected and weighed daily, and total nasal mucus weight was recorded. PK assessments were based on venous blood samples. […]
Metric: half-life

// half-life lookup, key: NCc1ccc2c(c1)nc(CN1C(=O)C3(CC3)c3ccc(F)cc31)n2CCCC(F)(F)F
~360 min

* * *

experiment: RSV human challenge study: plasma pharmacokinetics; format: in vivo; details: human, plasma, oral, 350 mg; dose 10 (twice daily); plasma; read-out: Mean Cmax (SD)
Metric: Cmax (ng/mL)
Return type: number; implicit unit ng/mL.

// Cmax lookup, key: NCc1ccc2c(c1)nc(CN1C(=O)C3(CC3)c3ccc(F)cc31)n2CCCC(F)(F)F [RV521]
294

* * *

experiment: RSV human challenge study: plasma pharmacokinetics; type: in vivo; settings: human, plasma, oral, 350 mg; dose 10; 12 hours post-dose; read-out: Mean Cmin (SD)
Metric: concentration at 12 h (ng/mL)
Return type: number; implicit unit ng/mL.

// concentration at 12 h lookup, key: NCc1ccc2c(c1)nc(CN1C(=O)C3(CC3)c3ccc(F)cc31)n2CCCC(F)(F)F
151

* * *

experiment: RSV human challenge study: plasma pharmacokinetics; format: in vivo; settings: human, plasma, oral, 200 mg; dose 10; read-out: Geometric mean (CV) AUC0–12h
Metric: AUC(0-t) (ng·h/mL)
Return type: number; implicit unit ng·h/mL.

// AUC(0-t) lookup, key: NCc1ccc2c(c1)nc(CN1C(=O)C3(CC3)c3ccc(F)cc31)n2CCCC(F)(F)F
642

* * *

assay: RSV human challenge study: plasma pharmacokinetics; assay type: in vivo; settings: human, plasma, oral, 200 mg; dose 1; 12 hours post-dose; read-out: Mean Cmin (SD)
Metric: concentration at 12 h (ng/mL)
Return type: number; implicit unit ng/mL.

// concentration at 12 h lookup, key: NCc1ccc2c(c1)nc(CN1C(=O)C3(CC3)c3ccc(F)cc31)n2CCCC(F)(F)F [RV521]
22.6
